Biological target: T1, AAV8 (adeno-associated virus 8)
T1 construct: also called adeno-associated virus serotype 8
Assay: SPR, AAV amine-coupled to CM5 chip;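 further: nanobodies flowed as analyte at seven concentrations spanning 1–100 nM over immobilized AAV (500–800 RU), kinetic constants derived by fitting the binding curves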
recordedEndpoint: kon (M⁻¹ s⁻¹)
# unit: M⁻¹ s⁻¹ | format: bare number

A4-096 (VHH) VHH: VQLQESGGGLVQPGGSLRLSCIASGSSFSANTMGWYRQAPGKQRELVATITRGGNTNYGDSVKGRFTISRDNAKNTVYLQMNSLRPEDTAVYYCHIDEIRESTWTTSNLWGQGTQVTVSS :: 110000

Proceed to the following item.
The reported kon of the binder A4-056 (VHH) VHH: VQLQESGGGLVQPGGSLRLSCAASGSAFSINTMGWYRQAPGKQREKVAAVTRGGSTNYADSVKGRFTISRDNAKNTVYLQMNSLRPEDTAVYYCHVDEVRQSSWTTSNLWGQGTQVTVSS was 29400
